Origin of measurements: the CheMixHub drug solubility set

Experiment: xn = mol fraction of the nth substance listed, in the solute-free solvent
Conditions: 323.15 K; x2 = 0.1
Assay Readout: solubility (g/100 g solution)
Just the number, please, no unit attached.

The following compounds have reported results that may help.
{"Compound": "CC(C)C(=O)Nc1ccc([N+](=O)[O-])c(C(F)(F)F)c1 + CCOC(C)=O + CC(C)O", "solubility (g/100 g solution)": 57.4}
{"Compound": "Cl.NC1CCSC1=O (centres undefined) + CO + CC#N", "solubility (g/100 g solution)": 0.194}
{"Compound": "CC(C)C(=O)Nc1ccc([N+](=O)[O-])c(C(F)(F)F)c1 + CC(C)=O + CC(C)O", "solubility (g/100 g solution)": 59}

Next up:
Form: compound = CC(C)C(=O)Nc1ccc([N+](=O)[O-])c(C(F)(F)F)c1 + C1CCOC1 + CC(C)O ; solubility (g/100 g solution) = 56.1

* * *

Test: xn = mol fraction of the nth substance listed, in the solute-free solvent
Conditions: 288.15 K; x2 = 0.3103
Assay Readout: solubility (g/100 g solution)

Check out these entries, answers already filled in.
{"Compound": "CC(C)C(=O)Nc1ccc([N+](=O)[O-])c(C(F)(F)F)c1 + CC(C)O + O", "solubility (g/100 g solution)": 5}
{"Compound": "O=C1C=CC(=O)N1c1ccccc1Br + CC(C)O + O", "solubility (g/100 g solution)": 5.06}
{"Compound": "O=c1cc(CBr)c2ccccc2[nH]1 + CCCO + O", "solubility (g/100 g solution)": 0.115}
{"Compound": "Nc1ncc(Br)nc1Br + CC(C)O + O", "solubility (g/100 g solution)": 0.21}

Shifting focus to the compound that follows.
// sample O=c1cc(CBr)c2ccccc2[nH]1 + CC(C)O + O , its solubility (g/100 g solution) was 0.0799

* * *

Experiment: xn = mol fraction of the nth substance listed, in the solute-free solvent
Conditions: 313.15 K; x2 = 0.3
Here, each record is paired with measured solubility (g/100 g solution) data.
Give the figure only, with no unit attached.

Example molecules with recorded solubility (g/100 g solution):
{"Molecule": "CC(C)C(=O)Nc1ccc([N+](=O)[O-])c(C(F)(F)F)c1 + CC(C)=O + CC(C)O", "Reported Result": 58.4}
{"Molecule": "Cl.NC1CCSC1=O (centres undefined) + CO + CC#N", "Reported Result": 1.32}
{"Molecule": "CC(C)C(=O)Nc1ccc([N+](=O)[O-])c(C(F)(F)F)c1 + C1CCOC1 + CC(C)O", "Reported Result": 60.3}

Query molecule follows.
Entry CC(C)C(=O)Nc1ccc([N+](=O)[O-])c(C(F)(F)F)c1 + CCOC(C)=O + CC(C)O ; solubility (g/100 g solution) = 54.9

* * *

// reported solubility (g/100 g solution) per item
Assay: xn = mol fraction of the nth substance listed, in the solute-free solvent
Conditions: 283.15 K; x2 = 0.7
Output spec: single numeric token, no unit.

Consider the following illustrative entries.
{"Compound": "CC(C)C(=O)Nc1ccc([N+](=O)[O-])c(C(F)(F)F)c1 + CC(C)=O + CC(C)O", "solubility (g/100 g solution)": 50.5}
{"Compound": "CC(C)C(=O)Nc1ccc([N+](=O)[O-])c(C(F)(F)F)c1 + C1CCOC1 + CC(C)O", "solubility (g/100 g solution)": 51.9}

Consider CC(C)C(=O)Nc1ccc([N+](=O)[O-])c(C(F)(F)F)c1 + CCOC(C)=O + CC(C)O . Its measured solubility (g/100 g solution) is 37.8

Lab note: measured solubility (g/100 g solution) of Cl.NC1CCSC1=O (centres undefined) + CO + CC#N was 4.99

* * *

Recorded solubility (g/100 g solution) for the following molecules
Test: xn = mol fraction of the nth substance listed, in the solute-free solvent
Conditions: 318.15 K; x2 = 0.7788

{"Molecule": "Nc1cc(-c2ccncc2)c[nH]c1=O + CCO + O", "solubility (g/100 g solution)": 0.0329}

Given item Nc1ncc(Br)nc1Br + CCO + O , the value recorded as its solubility (g/100 g solution) is 1.26

# solubility (g/100 g solution) of CC(C)C(=O)Nc1ccc([N+](=O)[O-])c(C(F)(F)F)c1 + CCO + O = 38.1

Given item O=c1cc(CBr)c2ccccc2[nH]1 + CCO + O , the value recorded as its solubility (g/100 g solution) is 0.219

Recorded solubility (g/100 g solution) (molecule O=C1C=CC(=O)N1c1ccccc1Br + CCO + O ): 20.8

* * *

Test: xn = mol fraction of the nth substance listed, in the solute-free solvent
Conditions: 303.15 K; x2 = 0.4772
Assay Readout: solubility (g/100 g solution)
Reply: number alone, nothing else.

Below are worked cases with known answers.
{"Molecule": "CC(C)C(=O)Nc1ccc([N+](=O)[O-])c(C(F)(F)F)c1 + CCO + O", "Assay Readout": "solubility (g/100 g solution)", "Reported Result": 11}
{"Molecule": "Nc1ncc(Br)nc1Br + CCO + O", "Assay Readout": "solubility (g/100 g solution)", "Reported Result": 0.618}
{"Molecule": "O=C1C=CC(=O)N1c1ccccc1Br + CCO + O", "Assay Readout": "solubility (g/100 g solution)", "Reported Result": 11.8}

Record summary for Nc1cc(-c2ccncc2)c[nH]c1=O + CCO + O : reported solubility (g/100 g solution) = 0.0167

The value of solubility (g/100 g solution) measured for the molecule O=c1cc(CBr)c2ccccc2[nH]1 + CCO + O turned out to be 0.157

* * *

Below: a set of entries, each annotated with reported solubility (g/100 g solution).
Assay: xn = mol fraction of the nth substance listed, in the solute-free solvent
Settings: 313.15 K; x2 = 0.7
The response must contain the number and no unit.

Answered cases to consult:
{"Molecule": "Cl.NC1CCSC1=O (centres undefined) + CO + CC#N", "solubility (g/100 g solution)": 7.78}
{"Molecule": "CC(C)C(=O)Nc1ccc([N+](=O)[O-])c(C(F)(F)F)c1 + CCOC(C)=O + CC(C)O", "solubility (g/100 g solution)": 56.4}

Input CC(C)C(=O)Nc1ccc([N+](=O)[O-])c(C(F)(F)F)c1 + CC(C)=O + CC(C)O . Output solubility (g/100 g solution): 70.1

The measured solubility (g/100 g solution) associated with CC(C)C(=O)Nc1ccc([N+](=O)[O-])c(C(F)(F)F)c1 + C1CCOC1 + CC(C)O reads 70

* * *

Below: a set of entries, each annotated with reported solubility (g/100 g solution).
Test: xn = mol fraction of the nth substance listed, in the solute-free solvent
Settings: 308.15 K; x2 = 0.1436
A bare number is all that is needed in reply.

Known results for compounds:
{"Compound": "CC(C)C(=O)Nc1ccc([N+](=O)[O-])c(C(F)(F)F)c1 + CCO + O", "Assay Readout": "solubility (g/100 g solution)", "Reported Result": 0.305}
{"Compound": "O=C1C=CC(=O)N1c1ccccc1Br + CCO + O", "Assay Readout": "solubility (g/100 g solution)", "Reported Result": 5.87}
{"Compound": "Nc1cc(-c2ccncc2)c[nH]c1=O + CCO + O", "Assay Readout": "solubility (g/100 g solution)", "Reported Result": 0.00631}

Summary for this compound, Nc1ncc(Br)nc1Br + CCO + O : solubility (g/100 g solution) is 0.271

Sample O=c1cc(CBr)c2ccccc2[nH]1 + CCO + O ; solubility (g/100 g solution) observed: 0.106

* * *

Experiment: xn = mol fraction of the nth substance listed, in the solute-free solvent
Conditions: 283.15 K; x2 = 0.7297
Please mark satisfied if the recorded solubility (g/100 g solution) is equal to or greater than 0.2, and not satisfied if it falls below.

{"Compound": "O=C1C=CC(=O)N1c1ccccc1Br + CC(C)O + O", "Discrete Label": "satisfied"}
{"Compound": "CC(C)C(=O)Nc1ccc([N+](=O)[O-])c(C(F)(F)F)c1 + CC(C)O + O", "Discrete Label": "satisfied"}
{"Compound": "O=c1cc(CBr)c2ccccc2[nH]1 + CC(C)O + O", "Discrete Label": "not satisfied"}
{"Compound": "O=c1cc(CBr)c2ccccc2[nH]1 + CCCO + O", "Discrete Label": "not satisfied"}

Read the next record carefully.
Given the entry Nc1ncc(Br)nc1Br + CC(C)O + O , answer whether its solubility (g/100 g solution) meets or surpasses 0.2.
satisfied

* * *

Test: xn = mol fraction of the nth substance listed, in the solute-free solvent
Conditions: 308.15 K; x2 = 0.08908
Assay Readout: solubility (g/100 g solution)
// return a plain number; no unit text

{"Compound": "CC(C)C(=O)Nc1ccc([N+](=O)[O-])c(C(F)(F)F)c1 + CCO + O", "solubility (g/100 g solution)": 0.0793}

Recorded solubility (g/100 g solution) (compound O=c1cc(CBr)c2ccccc2[nH]1 + CCO + O ): 0.0854

Consider Nc1ncc(Br)nc1Br + CCO + O . Its measured solubility (g/100 g solution) is 0.142

Please fill in: solubility (g/100 g solution) reported for Nc1cc(-c2ccncc2)c[nH]c1=O + CCO + O = 0.0044

Briefly, solubility (g/100 g solution) measured for O=C1C=CC(=O)N1c1ccccc1Br + CCO + O : 3.58
